Target: UniProt:P42681
Sequence (P42681 whole entry, species assumed): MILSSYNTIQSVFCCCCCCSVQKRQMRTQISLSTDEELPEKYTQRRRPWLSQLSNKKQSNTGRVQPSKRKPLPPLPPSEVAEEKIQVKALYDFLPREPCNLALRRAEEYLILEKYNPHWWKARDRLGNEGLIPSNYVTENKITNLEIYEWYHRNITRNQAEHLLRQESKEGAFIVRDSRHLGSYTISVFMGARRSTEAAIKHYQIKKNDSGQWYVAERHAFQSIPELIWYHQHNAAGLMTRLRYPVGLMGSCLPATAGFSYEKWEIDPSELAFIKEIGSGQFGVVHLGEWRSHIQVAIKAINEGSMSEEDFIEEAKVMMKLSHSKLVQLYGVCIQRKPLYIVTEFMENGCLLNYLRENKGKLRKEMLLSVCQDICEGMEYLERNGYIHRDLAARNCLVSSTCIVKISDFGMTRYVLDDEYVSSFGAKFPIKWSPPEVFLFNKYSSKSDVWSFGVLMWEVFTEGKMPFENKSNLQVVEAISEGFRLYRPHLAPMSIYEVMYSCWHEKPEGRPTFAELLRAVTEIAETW
Test: IC50 against TXK
Format: biochemical
Details: ratio of TXK IC50 to ITK IC50
value type: TXK/ITK

{"smiles string": "C=CC(=O)N1CCCN(C(=O)c2cc(CSc3cnc(NC(=O)C4CC4)s3)cc(C)c2C)CC1", "TXK/ITK": 2.9749}

a = C=CC(=O)N1CCCN(C(=O)c2cc(Sc3cnc(NC(=O)c4ccc(F)c(CN(C)C)c4)s3)c(C)cc2OC)CC1
b = C=CC(=O)N1CCN(C(=O)c2cc(Sc3cnc(NC(=O)c4ccncc4)s3)c(C)cc2OC)CC1
c = C=CC(=O)N1CCN(C(=O)c2cc(Sc3cnc(NC(=O)C4CC4)s3)c(C)cc2OC)[C@@H](C)C1
Order these by TXK/ITK, descending, and give the full ranking. List each label, following the requested order. a, b, c
(a: 230.63, b: 74.161, c: 6.5873)

###

Target: UniProtKB P52333
Sequence (P52333 whole entry, species assumed): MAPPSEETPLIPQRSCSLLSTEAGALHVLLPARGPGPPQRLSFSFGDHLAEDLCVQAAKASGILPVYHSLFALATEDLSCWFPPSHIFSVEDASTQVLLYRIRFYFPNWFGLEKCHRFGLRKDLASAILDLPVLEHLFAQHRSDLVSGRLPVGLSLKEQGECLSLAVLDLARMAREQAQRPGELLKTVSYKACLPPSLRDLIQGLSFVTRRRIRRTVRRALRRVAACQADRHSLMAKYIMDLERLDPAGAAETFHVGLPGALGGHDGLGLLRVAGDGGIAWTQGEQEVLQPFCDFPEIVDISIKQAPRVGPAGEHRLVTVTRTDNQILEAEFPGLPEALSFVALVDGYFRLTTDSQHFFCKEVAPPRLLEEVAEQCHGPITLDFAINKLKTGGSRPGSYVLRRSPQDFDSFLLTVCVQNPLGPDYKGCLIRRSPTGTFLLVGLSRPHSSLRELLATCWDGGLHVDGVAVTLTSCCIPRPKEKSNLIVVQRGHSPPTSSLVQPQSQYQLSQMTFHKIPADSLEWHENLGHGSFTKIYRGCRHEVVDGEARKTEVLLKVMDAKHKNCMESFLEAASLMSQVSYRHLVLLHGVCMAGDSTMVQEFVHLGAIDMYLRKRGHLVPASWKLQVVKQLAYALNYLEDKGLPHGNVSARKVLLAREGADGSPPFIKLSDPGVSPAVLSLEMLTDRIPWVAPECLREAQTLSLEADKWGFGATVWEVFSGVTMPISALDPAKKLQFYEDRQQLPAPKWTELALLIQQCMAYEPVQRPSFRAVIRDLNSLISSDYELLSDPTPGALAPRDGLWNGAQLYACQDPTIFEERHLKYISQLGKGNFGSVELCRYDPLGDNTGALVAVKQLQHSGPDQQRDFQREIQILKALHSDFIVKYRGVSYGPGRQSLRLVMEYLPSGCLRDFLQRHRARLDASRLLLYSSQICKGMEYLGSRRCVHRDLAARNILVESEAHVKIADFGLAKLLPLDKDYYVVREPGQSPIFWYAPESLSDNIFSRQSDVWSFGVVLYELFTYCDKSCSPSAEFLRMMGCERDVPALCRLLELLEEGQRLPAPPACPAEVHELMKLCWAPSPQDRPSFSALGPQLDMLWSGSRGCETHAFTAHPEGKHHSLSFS
Experiment: IC50 against JAK3
Type: biochemical
Entries and their IC50

Here's what some known entries look like.
{"compound": "C=CC(=O)N1CCN(C(=O)c2cc(Sc3cnc(NC(=O)c4cccc(CN(C)C)c4)s3)c(C)cc2OC)C[C@H]1C", "result": "1000 to 10000 nM"}
{"compound": "C=CC(=O)N1CCN(C(=O)c2cc(Sc3cnc(NC(C)=O)s3)c(C)cc2OC)CC1(C)C", "result": "1000 to 10000 nM"}
{"compound": "C=CC(=O)N1CCCN(C(=O)c2cc(Sc3cnc(NC(=O)C4CC4)s3)c(C)cc2F)C[C@H]1C", "result": "≥ 10000 nM"}
{"compound": "C=CC(=O)N1CCN(C(=O)c2cc(Cc3cnc(NC(=O)C4CC4)s3)c(C)cc2OC)CC1", "result": "100 to 1000 nM"}
{"compound": "C=CC(=O)N1CCCN(C(=O)c2cc(Sc3cnc(NC(=O)c4ccsc4)s3)c(C)cc2OC)C[C@H]1C(C)C", "result": "≥ 10000 nM"}

Quick note, IC50 for `C=CC(=O)N1CCN(C(=O)c2cc(Sc3cnc(NC(=O)c4cccnc4)s3)c(C)cc2OC)CC1` landed at 1000 to 10000 nM

According to the records, this compound `C=CC(=O)N1CCCN(C(=O)c2cc(Sc3cnc(NC(=O)C4CC4)s3)c(F)cc2C)C[C@H]1C` displays IC50 of 1000 to 10000 nM

// IC50 value for `C=CC(=O)N1CCN(C(=O)c2cc(Sc3cnc(NC(=O)c4ccsc4)s3)c(C)cc2C)CC1` : 10 to 100 nM

Looking up `C=CC(=O)N1CCN(C(=O)c2cc(Sc3cnc(NC(=O)C4CC4)s3)c(C)cc2CC)C[C@H]1CC` , I see its IC50 listed as 100 to 1000 nM

So, `C=CC(=O)N1CCN(C(=O)c2cc(Sc3cnc(NC(=O)C4CC4)s3)c(C)cc2OC)C[C@H]1C#N` ? Its IC50 was 10 to 100 nM

###

Biological target: UniProt Q08881
Sequence (Q08881 whole entry): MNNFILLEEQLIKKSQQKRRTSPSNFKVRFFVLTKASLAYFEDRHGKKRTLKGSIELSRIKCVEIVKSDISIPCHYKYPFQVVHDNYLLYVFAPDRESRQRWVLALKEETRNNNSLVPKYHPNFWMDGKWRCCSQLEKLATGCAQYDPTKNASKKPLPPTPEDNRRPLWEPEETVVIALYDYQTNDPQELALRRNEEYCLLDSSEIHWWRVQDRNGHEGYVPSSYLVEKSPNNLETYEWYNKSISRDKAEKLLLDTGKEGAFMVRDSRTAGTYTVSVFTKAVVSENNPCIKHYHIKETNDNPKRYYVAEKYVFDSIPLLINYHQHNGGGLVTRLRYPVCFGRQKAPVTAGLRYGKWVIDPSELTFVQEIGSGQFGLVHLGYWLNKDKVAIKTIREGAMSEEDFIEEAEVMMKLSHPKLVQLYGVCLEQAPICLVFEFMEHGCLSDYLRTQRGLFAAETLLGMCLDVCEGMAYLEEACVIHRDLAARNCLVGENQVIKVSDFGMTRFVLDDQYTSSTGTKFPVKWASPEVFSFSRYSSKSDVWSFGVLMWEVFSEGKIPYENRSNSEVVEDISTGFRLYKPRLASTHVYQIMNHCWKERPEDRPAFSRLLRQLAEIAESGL
Experiment: IC50 against ITK
Type: biochemical
value type: IC50

Worked set:
{"compound": "C=CC(=O)N1CCN(C(=O)c2cc(Sc3cnc(NC(=O)C4CC4)s3)c(C)cc2OC)C(C)(C)C1 [Compound 15]", "result": "< 10 nM"}
{"compound": "C=CC(=O)N1CCN(C(=O)c2cc(Sc3cnc(NC4CC4)s3)c(C)cc2OC)CC1 [Compound 67]", "result": "≥ 10000 nM"}
{"compound": "C=CC(=O)N1CC[C@@H](N(C)C(=O)c2cc(Sc3cnc(NC(=O)C4CC4)s3)c(C)cc2OC)C1 [Compound 27]", "result": "< 10 nM"}

The value of IC50 measured for the compound C=CC(=O)N1CC[C@H](N(C)C(=O)c2cc(Sc3cnc(NC(=O)C4CC4)s3)c(C)cc2OC)C1 [Compound 29] turned out to be < 10 nM

Memo: C=CC(=O)N1CCN(C(=O)c2cc(Sc3cnc(NC(=O)c4cccnc4)s3)c(C)cc2OC)CC1 [Compound 89] , reported IC50: < 10 nM

IC50 recorded for this compound, C=CC(=O)N1CCN(C(=O)c2cc(Sc3cnc(NC(C)=O)s3)c(C)cc2OC)CC1(C)C [Compound 6] , is 10 to 100 nM

What the record says about C=CC(=O)N1CCCN(C(=O)c2cc(Cc3cnc(NC(=O)C4CC4)s3)c(C)cc2C)C[C@H]1C [Compound 127] : IC50 is 10 to 100 nM
